target-or-system: T1, human GIP receptor (human, UniProt P48546 22-466)
T1 sequence (looked up): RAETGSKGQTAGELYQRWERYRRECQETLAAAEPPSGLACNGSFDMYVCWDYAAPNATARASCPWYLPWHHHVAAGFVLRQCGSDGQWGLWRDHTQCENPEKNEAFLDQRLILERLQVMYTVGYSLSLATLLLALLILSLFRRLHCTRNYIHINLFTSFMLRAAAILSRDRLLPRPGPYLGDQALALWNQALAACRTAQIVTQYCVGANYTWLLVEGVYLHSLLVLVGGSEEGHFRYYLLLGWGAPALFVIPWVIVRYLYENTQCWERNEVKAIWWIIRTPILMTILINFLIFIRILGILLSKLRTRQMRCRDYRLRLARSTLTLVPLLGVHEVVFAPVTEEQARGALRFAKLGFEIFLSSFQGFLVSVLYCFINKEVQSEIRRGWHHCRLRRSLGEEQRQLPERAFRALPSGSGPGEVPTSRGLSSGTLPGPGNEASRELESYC
assay-remarks: cell-based or functional assay
Bridges are numbered along the chain shown (N, C = ends). Where no end group is shown, it is not given here. [ ]: non-standard residue; d: D form. The star is where a group is joined. Acetyl(2-(4-imidazolyl)) = O=C(Cc1c[nH]cn1)*; Aib = CC(C)(N)C(=O)O
# In vitro activity (%) vs. GIP, cAMP EC50 per entry

binder: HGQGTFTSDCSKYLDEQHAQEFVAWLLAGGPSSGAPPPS [triple agonist of SEQ ID NO: 46]
In vitro activity (%) vs. GIP, cAMP EC50: < 0.1%

binder: H[Aib]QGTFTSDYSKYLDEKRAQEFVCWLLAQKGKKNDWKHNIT [triple agonist of SEQ ID NO: 28]
In vitro activity (%) vs. GIP, cAMP EC50: < 0.1%

binder: {Acetyl(2-(4-imidazolyl))}-[Aib]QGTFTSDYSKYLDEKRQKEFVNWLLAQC (bridge 15-19) [triple agonist of SEQ ID NO: 86]
In vitro activity (%) vs. GIP, cAMP EC50: 0.2%

binder: H[Aib]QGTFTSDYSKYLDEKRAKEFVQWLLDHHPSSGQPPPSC (bridge 16-20; ends not checked) [triple agonist of SEQ ID NO: 50]
In vitro activity (%) vs. GIP, cAMP EC50: 2.7%

binder: H[Aib]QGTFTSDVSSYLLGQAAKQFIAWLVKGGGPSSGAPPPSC [triple agonist of SEQ ID NO: 3]
In vitro activity (%) vs. GIP, cAMP EC50: < 0.1%

binder: H[Aib]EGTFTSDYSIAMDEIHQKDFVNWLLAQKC (bridge 16-20) [triple agonist of SEQ ID NO: 79]
In vitro activity (%) vs. GIP, cAMP EC50: 1.4%
